// reported OD 450 nm per item
- target or test system: HCV E1E2 antigen, isolate J6E3 (hepatitis C virus, isolate J6E3, UniProt P26660 192-383; P26660 384-750)
- Sequence (P26660 192-383 limits assumed, chain 1 of 2): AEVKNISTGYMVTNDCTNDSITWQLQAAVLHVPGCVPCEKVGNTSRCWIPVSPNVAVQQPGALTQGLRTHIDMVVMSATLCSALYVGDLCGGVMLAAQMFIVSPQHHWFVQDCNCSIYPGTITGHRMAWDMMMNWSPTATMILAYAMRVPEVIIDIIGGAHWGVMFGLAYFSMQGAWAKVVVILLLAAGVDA
- Sequence (P26660 384-750 limits assumed, chain 2 of 2): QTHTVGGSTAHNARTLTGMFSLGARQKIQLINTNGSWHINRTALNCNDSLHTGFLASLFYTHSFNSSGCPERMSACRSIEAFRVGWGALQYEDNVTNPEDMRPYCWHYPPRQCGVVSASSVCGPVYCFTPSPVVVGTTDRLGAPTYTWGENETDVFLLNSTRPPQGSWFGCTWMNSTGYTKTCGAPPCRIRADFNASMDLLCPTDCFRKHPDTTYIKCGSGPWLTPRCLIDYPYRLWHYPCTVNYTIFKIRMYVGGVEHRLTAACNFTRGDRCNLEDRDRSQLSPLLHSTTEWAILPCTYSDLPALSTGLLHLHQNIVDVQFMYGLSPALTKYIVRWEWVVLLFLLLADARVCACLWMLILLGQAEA
- measurement notes: ELISA, Fab on E1E2 antigen
State just the number; it will be interpreted in OD 450 nm.

Please review the entries below; each comes with its answer.
[
  {
    "binder": "Fab R1 (Fab, V domains shown) VH: VQLLEQSGAEVKKPGASVKVSCKASGYTFSIYGVAWVRQAPGQGLEWMGWISPQNGDTHSPQKFQGRLTMTTDTSTSTAYMELRSLRSDDTAVYFCARDYGVNFGGGSEHNLDYWGRGTRVTVSS VL: ELTQSPLSLPVTPGEPASISCRSSYSLLHINGYKYLDWYLQRPGQSPQLLIYLGSNRAPGVPDRFSGSGSGTSFTLKISRVEAEDVGVYYCMQSLQAPWTFGQGTKVEMKR",
    "OD 450 nm / OD 450 nm": 0
  },
  {
    "binder": "Fab P1 (Fab, V domains shown) VH: EVQLLESGGGVVQPGGSLRLSCAASGFTFTSFTMHWVRQAPGKGLEWVALISHDGSNKDYADSVRGRFTVSRDNSKKMVYLQMSSLRPDDAAVYYCARGGPAYYTYSDTLTGYHNVVGDYWGQGTLVTVSS VL: ELTQSPGTLSLSPGERATLSCRASQVRGFLAWFQQKPGQAPRLLIYGASNRAPGIPDRFSGSGSGTDFTLTISRLEPEDFAVYYCQQYGDSPPITFGQGTRLEIKR",
    "OD 450 nm / OD 450 nm": 0.08
  },
  {
    "binder": "Fab N1 (Fab, V domains shown) VH: VQLLEQSGPEVKKPGDSLRISCKMSGDSLVTTWIGWVRQKPGQGLEWMGIINPGDSSTNIYPGDSATRYGPSFQGQVTISIDKSTSTAYLQWNAVKPSDTGIYYCARHVPVPISGTFLWREREMHDFGYFDDWGQGTLVIVSS VL: ELTQSPGTLSLSPGERATLSCRASQSVSSSYLAWYQQKPGQAPRLLIYGASNRAAGIPDRFSGSGSGADFTLTISRLEPEDFAVYYCQQYGSSLITFGQGTRLEIKR",
    "OD 450 nm / OD 450 nm": 0.64
  }
]

Qu. Requested field: OD 450 nm. Item: Fab U1 (Fab, V domains shown) VH: VQLLEQSGPEVKRPGTSVKMSCKISGGASITQAMSWVRQAPGQGLEWMGGITPIFGTVNYAQKILGRVTITADEDTVSLELSSLKSEDTAVYYCAREVNLKTWNLAHPNVFDVWGQGTMLTVSS VL: ELTQSPSSLSASVGDRVTITCRASQSISSFLNWYQQKPGKAPKLLIYAASSLQSGVPPRFSGSGSGTDFTLTISSLQPEDFATYYCQQSYSTPRTFGQGTKLEIKR
Ans. 0.08

Qu. Requested field: OD 450 nm. Item: Fab N4 (Fab, V domains shown) VH: VQLLEQSGPEVKKPGDSLRISCKMSGDSLVTTWIGWVRQKPGQGLEWMGIINPGDSSTNIYPGDSATRYGPSFQGQVTISIDKSTSTAYLQWNNVKASDTGIYYCARHVPVPISGTFLWREREMHDFGYFDDWGQGTLVIVSS VL: ELTLTQSPGTLSLSPGERATLSCRASQSVSNNYLAWYQQKPGQAPRLLIYGASSRATGIPDRFSGSGSGTGFTLIISRLEPEDFAVYYCQQYGSSSITFGQGTRLEIKR
Ans. 0.99
